- Test system: 935938-334-R-J1-PDC spheroids with HUVEC/MSC, viability;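 also: compound exposure lasted seven days before viability was read; percent of vehicle DMSO treated spheroid viability so 100% = untreated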
- Experiment notes: Anticancer human tumor 935938-334-R-J1-PDC patient-derived small intestine adenocarcinoma cell line growth inhibition [PI3K]
- Condition info: second compound 0.1 µM; first compound 0.000316 µM; active compounds read low

Compound	Experimental target	Scale unit	viability, T/C
Cn1ncnc1[C@H]1c2n[nH]c(=O)c3cc(F)cc(c23)N[C@@H]1c1ccc(F)cc1 + COc1c(OCCCN2CCOCC2)ccc2c3n(c(=NC(=O)c4cnc(N)nc4)nc12)CCN3	935938-334-R-J1-PDC spheroids with HUVEC/MSC, viability	%	56
CC(C)n1nc(-c2ccc3oc(N)nc3c2)c2c(N)ncnc21 + CC(Nc1ncnc2nc[nH]c12)c1cc2cccc(Cl)c2c(=O)n1-c1ccccc1	935938-334-R-J1-PDC spheroids with HUVEC/MSC, viability	%	97.3
CC(=O)c1c(C)c2cnc(Nc3ccc(N4CCNCC4)cn3)nc2n(C2CCCC2)c1=O + CC(Nc1ccc2c(c1)OCCn1cc(N3C(=O)OCC3C(F)F)nc1-2)C(N)=O	935938-334-R-J1-PDC spheroids with HUVEC/MSC, viability	%	76.2
CC(=O)c1c(C)c2cnc(Nc3ccc(N4CCNCC4)cn3)nc2n(C2CCCC2)c1=O + CC(Nc1ncnc2nc[nH]c12)c1cc2cccc(Cl)c2c(=O)n1-c1ccccc1	935938-334-R-J1-PDC spheroids with HUVEC/MSC, viability	%	103
Cn1ncnc1[C@H]1c2n[nH]c(=O)c3cc(F)cc(c23)N[C@@H]1c1ccc(F)cc1 + Cc1nc(NC(=O)N2CCCC2C(N)=O)sc1-c1ccnc(C(C)(C)C(F)(F)F)c1	935938-334-R-J1-PDC spheroids with HUVEC/MSC, viability	%	81
CC(C)n1nc(-c2ccc3oc(N)nc3c2)c2c(N)ncnc21 + Cc1nc(NC(=O)N2CCCC2C(N)=O)sc1-c1ccnc(C(C)(C)C(F)(F)F)c1	935938-334-R-J1-PDC spheroids with HUVEC/MSC, viability	%	89
CC(C)n1nc(-c2ccc3oc(N)nc3c2)c2c(N)ncnc21 + CC(Nc1ccc2c(c1)OCCn1cc(N3C(=O)OCC3C(F)F)nc1-2)C(N)=O	935938-334-R-J1-PDC spheroids with HUVEC/MSC, viability	%	102
CC(=O)c1c(C)c2cnc(Nc3ccc(N4CCNCC4)cn3)nc2n(C2CCCC2)c1=O + Cc1nc(NC(=O)N2CCCC2C(N)=O)sc1-c1ccnc(C(C)(C)C(F)(F)F)c1	935938-334-R-J1-PDC spheroids with HUVEC/MSC, viability	%	94.4
Cn1ncnc1[C@H]1c2n[nH]c(=O)c3cc(F)cc(c23)N[C@@H]1c1ccc(F)cc1 + CC(Nc1ncnc2nc[nH]c12)c1cc2cccc(Cl)c2c(=O)n1-c1ccccc1	935938-334-R-J1-PDC spheroids with HUVEC/MSC, viability	%	86.7
CC(=O)c1c(C)c2cnc(Nc3ccc(N4CCNCC4)cn3)nc2n(C2CCCC2)c1=O + COc1c(OCCCN2CCOCC2)ccc2c3n(c(=NC(=O)c4cnc(N)nc4)nc12)CCN3	935938-334-R-J1-PDC spheroids with HUVEC/MSC, viability	%	54.4
Cn1ncnc1[C@H]1c2n[nH]c(=O)c3cc(F)cc(c23)N[C@@H]1c1ccc(F)cc1 + CC(Nc1ccc2c(c1)OCCn1cc(N3C(=O)OCC3C(F)F)nc1-2)C(N)=O	935938-334-R-J1-PDC spheroids with HUVEC/MSC, viability	%	88.1
CC(C)n1nc(-c2ccc3oc(N)nc3c2)c2c(N)ncnc21 + COc1c(OCCCN2CCOCC2)ccc2c3n(c(=NC(=O)c4cnc(N)nc4)nc12)CCN3	935938-334-R-J1-PDC spheroids with HUVEC/MSC, viability	%	45.1
